# assay.system: Rac GTPase-activating protein 1 (Homo sapiens)
# assay.notes: blockers of MgcRacGAP-driven Rac1 GTP hydrolysis – biochemical, ADP Hunter fluorescence, primary and confirmatory, confirmation (AID 624330);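 note: fluorescence reports GDP produced by GAP-driven GTP hydrolysis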
# assay.context: MgcRacGAP-stimulated Rac1 GTP hydrolysis, at 30 µM, hits give high values, GST-tagged Rac1 F28L mutant substrate
About 2,100 (0.62%) of roughly 340,000 compounds were called active. A selection follows. Measured potencies and affinities stand elsewhere.
metric: inhibition (%)

compound: CN(C1CCCCC1)S(=O)(=O)c1ccc(=S)[nH]c1
metric: inhibition
experimental.result: 16.8
--
compound: CC(=O)N/C(=C\c1ccccc1)C(=O)OCC(=O)NC(=O)c1ccccc1
metric: inhibition
experimental.result: 5.8
--
compound: Cc1ccc(SCC(=O)OCC(=O)N(CC(C)C)C2CCS(=O)(=O)C2)cc1C (stereo unspecified)
metric: inhibition
experimental.result: 9.24
--
compound: COc1ccc2c(c1)C(=NNC(=O)c1ccccn1)c1cc(OC)ccc1-2
metric: inhibition
experimental.result: 12.9
--
compound: c1cc2c3c(cccc3c1)NC1(CCCC1)N2
metric: inhibition
experimental.result: -1.27
--
compound: CN(C)c1ccc(/C=c2\sc3n(c2=O)CCCN=3)cc1
metric: inhibition
experimental.result: 9.18
--
compound: CCOc1ccc2c(c1)C(=NNC(=O)c1ccccn1)c1cc(OCC)ccc1-2
metric: inhibition
experimental.result: -24.9
--
compound: O=C(Cn1cnc([N+](=O)[O-])n1)N/N=C/c1cc(Cl)ccc1O
metric: inhibition
experimental.result: 11.2
--
compound: c1cc2c3c(cccc3c1)NC1(CCC3(CC1)Nc1cccc4cccc(c14)N3)N2
metric: inhibition
experimental.result: 29.5
--
compound: COc1ccc(/C=N/NC(=O)Cc2cccs2)cc1
metric: inhibition
experimental.result: 3.05
--
compound: CCN(CC)c1ccc(/C=N/NC(=O)Cc2cccs2)cc1
metric: inhibition
experimental.result: 18.5

* * *

# assay.system: Rac GTPase-activating protein 1 (Homo sapiens)
# assay.notes: blockers of MgcRacGAP-driven Rac1 GTP hydrolysis – biochemical, ADP Hunter fluorescence, primary and confirmatory, confirmation (AID 624330);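 note: fluorescence reports GDP produced by GAP-driven GTP hydrolysis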
# assay.context: MgcRacGAP-stimulated Rac1 GTP hydrolysis, at 30 µM, hits give high values, GST-tagged Rac1 F28L mutant substrate
The campaign covered roughly 340,000 compounds. About 2,100 (0.62%) were called active. Only a sample is shown. Measured potencies and affinities stand elsewhere.
metric: inhibition (%)

compound: O=C(NCc1ccccn1)C12CC3CC(CC(C3)C1)C2
assay.system: Rac GTPase-activating protein 1 (Homo sapiens)
experimental.result: 3.08

compound: CC(C)NC(=O)CCCc1cn(C)c2ccccc12
assay.system: Rac GTPase-activating protein 1 (Homo sapiens)
experimental.result: 3.62

compound: Cc1nnc2ccc(N3CCN(c4cccc(C(F)(F)F)c4)CC3)nn12
assay.system: Rac GTPase-activating protein 1 (Homo sapiens)
experimental.result: 5.89

compound: CCOc1cc(NC(=O)c2ccccc2OC)c(OCC)cc1NC(=O)c1ccccc1
assay.system: Rac GTPase-activating protein 1 (Homo sapiens)
experimental.result: -3.11

compound: COc1cc(C(=O)N[C@@H](Cc2c[nH]c3ccccc23)C(=O)O)cc(OC)c1OC
assay.system: Rac GTPase-activating protein 1 (Homo sapiens)
experimental.result: 1.53

compound: CCOC(=O)c1sc2nc(CSc3ccccc3)nc(N3CCC(C(N)=O)CC3)c2c1C
assay.system: Rac GTPase-activating protein 1 (Homo sapiens)
experimental.result: -5.99

compound: COc1ccc(CSc2nncn2N)cc1[N+](=O)[O-]
assay.system: Rac GTPase-activating protein 1 (Homo sapiens)
experimental.result: 2.61

compound: CCN(c1ccccc1)S(=O)(=O)c1ccc(C(=O)Nc2cccc(NC(C)=O)c2)cc1
assay.system: Rac GTPase-activating protein 1 (Homo sapiens)
experimental.result: 5.09

compound: COc1ccc(/C=C2/SC(c3ccc(C)cc3)=NC2=O)cc1OC
assay.system: Rac GTPase-activating protein 1 (Homo sapiens)
experimental.result: 11.7

compound: CCn1c(C)nc2c(C)[n+](CC(=O)c3ccc(Br)cc3)ccc21
assay.system: Rac GTPase-activating protein 1 (Homo sapiens)
experimental.result: 8.56

compound: COc1ccc(/C=C2\SC(N)=NC2=O)cc1
assay.system: Rac GTPase-activating protein 1 (Homo sapiens)
experimental.result: 3.78

compound: Cc1ccc(-n2c(Cc3cccn3C)nnc2SCC(=O)N2CCc3ccccc32)cc1
assay.system: Rac GTPase-activating protein 1 (Homo sapiens)
experimental.result: 19

compound: CCn1c(COc2ccc(Cl)cc2)nnc1SCC(=O)Nc1ccc2c(c1)OCCO2
assay.system: Rac GTPase-activating protein 1 (Homo sapiens)
experimental.result: 9.81

compound: COc1ccc(CCNC(=O)N2CCOCC2)cc1
assay.system: Rac GTPase-activating protein 1 (Homo sapiens)
experimental.result: 14.2

compound: O=C(CSc1nnc(CNC(=O)c2c(F)cccc2F)o1)NCCc1ccccc1
assay.system: Rac GTPase-activating protein 1 (Homo sapiens)
experimental.result: 6.85

compound: CCCOCC(O)CCc1n[nH]c(=S)n1-c1ccccc1 (centres undefined)
assay.system: Rac GTPase-activating protein 1 (Homo sapiens)
experimental.result: -1.65

compound: COc1ccc(/C=N/N2CCN(C3c4ccccc4-c4ccccc43)CC2)cc1O
assay.system: Rac GTPase-activating protein 1 (Homo sapiens)
experimental.result: 11.6

compound: COc1ccc(/C=C2\SC(c3ccc(C)cc3)=NC2=O)cc1OC
assay.system: Rac GTPase-activating protein 1 (Homo sapiens)
experimental.result: -0.09

compound: COc1cc(/C=C2/SC(=S)N(Cc3ccccc3)C2=O)ccc1O
assay.system: Rac GTPase-activating protein 1 (Homo sapiens)
experimental.result: 11.1

compound: CC(C)=CCC/C(C)=C/CNC(=O)CC1C[C@H](C(=O)N2CCOCC2)[C@@]2(C)c3[nH]c4ccccc4c3CCN2C1=O (some centres undefined)
assay.system: Rac GTPase-activating protein 1 (Homo sapiens)
experimental.result: 7.27

compound: Cc1c(Cl)cccc1NC(=S)N1CCN(Cc2ccccc2)CC1
assay.system: Rac GTPase-activating protein 1 (Homo sapiens)
experimental.result: 6.91

compound: COc1cc(/C=N/NC(=O)C(C)Nc2n[nH]c(=O)[nH]c2=O)cc(OC)c1O (centres undefined)
assay.system: Rac GTPase-activating protein 1 (Homo sapiens)
experimental.result: 11.1

compound: COc1ccc(OC)c(C(c2c(C)[nH][nH]c2=O)c2c(C)[nH][nH]c2=O)c1
assay.system: Rac GTPase-activating protein 1 (Homo sapiens)
experimental.result: 12.8

compound: COc1cc(/C=N/NC(=O)CCc2c(C)n[nH]c2C)ccc1O
assay.system: Rac GTPase-activating protein 1 (Homo sapiens)
experimental.result: 3.71

compound: COc1ccc(CN(C)C(=O)[C@H](Cc2ccccc2)NC(=O)c2ccco2)c(OC)c1
assay.system: Rac GTPase-activating protein 1 (Homo sapiens)
experimental.result: 0.3

compound: O=C(Cc1ccsc1)N1CCN(S(=O)(=O)c2cccc(F)c2)CC1
assay.system: Rac GTPase-activating protein 1 (Homo sapiens)
experimental.result: -3.87

compound: COc1cc(/C=N/NC(=O)CSc2cc(C)c(Br)cc2C)ccc1O
assay.system: Rac GTPase-activating protein 1 (Homo sapiens)
experimental.result: 15.9

compound: CCn1cc(CN2CCC(C(=O)Nc3cccc(-c4cccc(OC)c4)c3)CC2)c(C)n1
assay.system: Rac GTPase-activating protein 1 (Homo sapiens)
experimental.result: 4.15

compound: NC1=NC(=O)C(=Cc2ccccc2)S1
assay.system: Rac GTPase-activating protein 1 (Homo sapiens)
experimental.result: -0.93

compound: COc1ccc(/C=N/NC(=O)CNc2n[nH]c(=O)[nH]c2=O)cc1OC
assay.system: Rac GTPase-activating protein 1 (Homo sapiens)
experimental.result: 10.5

compound: S=C1NC[C@H](CC2CCCCC2)N1CC1CCCCC1
assay.system: Rac GTPase-activating protein 1 (Homo sapiens)
experimental.result: 5.21

compound: O=C(Cc1ccccc1)NN=Cc1ccccc1
assay.system: Rac GTPase-activating protein 1 (Homo sapiens)
experimental.result: -1.49

compound: O=c1cc(-c2ccc(Cl)c(Cl)c2)[nH][nH]1
assay.system: Rac GTPase-activating protein 1 (Homo sapiens)
experimental.result: 8.61

compound: COc1ccc(C2=NN(c3ccccc3)C(=O)/C2=C\c2ccc(O)c(OC)c2)cc1
assay.system: Rac GTPase-activating protein 1 (Homo sapiens)
experimental.result: 4.88

compound: CCOC(=O)C(=O)Nc1cc([N+](=O)[O-])ccc1C
assay.system: Rac GTPase-activating protein 1 (Homo sapiens)
experimental.result: 0.69

compound: O=C(NCc1ccccn1)NC12CC3CC(CC(C3)C1)C2
assay.system: Rac GTPase-activating protein 1 (Homo sapiens)
experimental.result: 1.18

compound: CC(=O)N(c1ccccc1)c1nnc(-c2cnc(C)cn2)s1
assay.system: Rac GTPase-activating protein 1 (Homo sapiens)
experimental.result: -6.48

compound: C=Cn1cc(CNC[C@H]2O[C@@H](n3ccc(N)nc3=O)[C@H](O)[C@@H]2O)c(C)n1
assay.system: Rac GTPase-activating protein 1 (Homo sapiens)
experimental.result: 0.77

compound: COC(=O)c1ccc(OCC(O)CN2CCOCC2)cc1 (centres undefined)
assay.system: Rac GTPase-activating protein 1 (Homo sapiens)
experimental.result: -9.81

compound: CCCCn1c(N)c(N(CCOC)C(=O)C(C)N2C(=O)c3ccccc3C2=O)c(=O)[nH]c1=O (centres undefined)
assay.system: Rac GTPase-activating protein 1 (Homo sapiens)
experimental.result: 0.26

compound: CCN(CC)CCCNC(=O)c1cc2c(-c3ccc(Cl)cc3)nn(C)c2s1
assay.system: Rac GTPase-activating protein 1 (Homo sapiens)
experimental.result: 15.3

compound: Cc1cc(NC(=O)/C=C/c2ccccc2)c(C(C)C)cc1O
assay.system: Rac GTPase-activating protein 1 (Homo sapiens)
experimental.result: 12.2

compound: CCOC(=O)CNC(=O)C1c2ccccc2Oc2ccccc21
assay.system: Rac GTPase-activating protein 1 (Homo sapiens)
experimental.result: 3.51

compound: CN1CCN(C(=O)/C(=C/c2ccco2)NC(=O)c2ccccc2)CC1
assay.system: Rac GTPase-activating protein 1 (Homo sapiens)
experimental.result: 3.42
